# PROTOCOL: Human HepG2 cell viability assay in 384 well format
# Format: toxicity, cell-based
# Set-up: dose 125 nL, time 70.5 hour; concentration not given beside the values
# STATED_CONDITIONS: HepG2 cells, read-out: Inhibition
MEASUREMENT_KIND: cytotoxicity at 70.5 h

INSERT INTO measurements (compound, reported_measurement) VALUES
  ('Cc1nnn2c1COC(CNCc1ccccn1)C2 (configuration not stated)', '-3.64%'),
  ('O=C(CC1CC1)NCc1cn2c(n1)CN(Cc1cccc(F)c1)CC2', '-3.4%'),
  ('COc1ccc(CNC(=O)NCC(O)(c2cccs2)C2CC2)cc1 (configuration not stated)', '-6.74%'),
  ('Cc1c(C)n(CC(O)CN2CCN(CCO)CC2)c2c(Cl)cccc12 (configuration not stated)', '10%'),
  ('CN1C(=O)CO[C@H]2CN(C(=O)c3ccc4c(c3)CCCC4)C[C@@H]21', '8.95%'),
  ('O=C(Cc1cccc2cccnc12)N1CCCN(c2cccnn2)CC1', '-11%'),
  ('COc1ncccc1C(=O)N1CC[C@H]2C[C@H](c3nnc(C)[nH]3)O[C@@H]2C1', '-14.1%'),
  ('COc1ccccc1N1CCN(C(=O)NC(C)c2nncn2C)CC1 (configuration not stated)', '-5.73%'),
  ('c1ccc(Cc2cncc(C3CCCN3C3CCOCC3)n2)cc1 (configuration not stated)', '-6.45%'),
  ('COCC(=O)N1C[C@H]2CC[C@@]3(N=C(c4ccccc4)NC3=O)[C@H]2C1', '-3.3%'),
  ('COc1ccc2[nH]c(=O)c(CN(C)C(C)c3ccccn3)cc2c1 (configuration not stated)', '-7.2%'),
  ('O=C(CO)N1CCCC(c2cc(C(F)(F)F)[nH]n2)C1 (configuration not stated)', '-2.3%'),
  ('COc1c(C(=O)NCc2cnn(C)c2C)nnn1Cc1ccccc1', '23%'),
  ('CCc1noc(C)c1C(=O)N1CCCC(n2nc(C)nc2C)C1 (configuration not stated)', '-2.69%'),
  ('O=C(Cc1cn2ccsc2n1)N1CCCC(n2ccnc2)C1 (configuration not stated)', '-2.03%'),
  ('CCOc1ccc(NC(=O)CN2CCN(c3nccn3C)CC2)cc1', '-2.94%'),
  ('O=C(NCCCNc1cccnc1)c1ccc2nccn2c1', '-12.7%'),
  ('O=C1NCCO[C@H]2CN(C(=O)CC3Cc4ccccc4C3)CC[C@@H]12', '-9.87%'),
  ('O=S1(=O)CCC(n2nc(COc3ccccc3)nc2-c2cnccn2)C1 (configuration not stated)', '-1.94%'),
  ('O=C(CCc1ccc(Br)cc1F)NS(=O)(=O)c1ccc2c(c1)OCCO2', '-3.13%'),
  ('Cc1sc2ncnc(N3CCCC3Cn3cccn3)c2c1C (configuration not stated)', '-11.4%'),
  ('CCN(CC)c1ncc(CNC2CCc3ncnn3C2)s1 (configuration not stated)', '-5.42%'),
  ('O=C(NCCc1ccccc1)c1cccc(S(=O)(=O)NC2CCOC2)c1 (configuration not stated)', '19.4%'),
  ('CN(C)C1CC2(CCN(C(=O)C3(C#N)CC3)CC2)c2ccccc21 (configuration not stated)', '-10.7%'),
  ('Cn1cc(C2=CCN(CCC(=O)NCc3ccc(Cl)cc3)CC2)cn1', '-2.89%'),
  ('CC(=O)N1CCC(C)(c2cc[nH]n2)CC1', '-3.17%'),
  ('CC(C)(C)OC(=O)NC1(c2noc(-c3ccoc3)n2)CCC1', '-6.71%'),
  ('Cc1ncnc(NC(CC(C)(C)C)c2cccnc2)c1C (configuration not stated)', '-2.93%'),
  ('O=C(CC1CC1)N1CCC2(CC1)CN(c1ccsc1)C(=O)CO2', '-2.64%'),
  ('COc1ccc(CN2CCC3(CC2)CCN(CC2CC2)C3=O)cc1', '-14.4%'),
  ('Cc1ccccc1C(C(=O)N1CCN(C(=O)c2ccc[nH]2)CC1)N(C)C (configuration not stated)', '-15.2%'),
  ('CCC(C)(NCC(=O)NC(=O)NC)c1nccs1 (configuration not stated)', '-4.72%'),
  ('OCCCN1CCOC(c2ccc(F)cc2)C1 (configuration not stated)', '-6.31%'),
  ('COCCn1nc(C(=O)N2CCCC2c2cccc(F)c2)ccc1=O (configuration not stated)', '-8.14%'),
  ('O=C(C1CC=CC1)N1CC[C@@H](O)[C@H]1Cc1cccnc1', '1.93%'),
  ('CN(Cc1cc(-c2cccnc2)no1)C(=O)c1cccn1C', '0.783%'),
  ('NC(=O)C1CCCN1CCCc1ccc(Cl)cc1 (configuration not stated)', '-5.15%'),
  ('CCc1ccc(C(NCC(N)=O)C(C)(C)C)o1 (configuration not stated)', '-6.31%'),
  ('O=S(=O)(Cc1ccccc1)c1nnc(N2CCCC2)s1', '-2.76%'),
  ('COc1ccc(-c2n[nH]cc2CN(C)Cc2nonc2C)c(F)c1', '-3.77%'),
  ('O=C(c1ccc(-n2ccnc2)nn1)N1CCCC1CCc1ccccc1 (configuration not stated)', '-19.5%'),
  ('CCCC(=O)N1CCCN(C(=O)Nc2ccc(C)s2)CC1', '-4.08%'),
  ('COc1ccc(-c2noc(CN3CCOCC3C)n2)cc1OC (configuration not stated)', '-10.5%'),
  ('O=C(c1cc(=O)n(-c2ccccc2)[nH]1)N1CCOCC(O)C1 (configuration not stated)', '22.9%'),
  ('Cn1cc(S(=O)(=O)N(CC(F)(F)F)C2CC2)cc1C(N)=O', '-4.65%'),
  ('Cc1noc(C)c1CS(=O)(=O)C(C)C(=O)N(C)c1ccccc1 (configuration not stated)', '-111%'),
  ('COc1ccccc1CC(C)CC(=O)O (configuration not stated)', '-11.2%');
